Target: Endonuclease III-like protein 1 (Homo sapiens) (UniProt P78549);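 also: enzyme assay tracking NTHL1 cutting and release of a quenched double-stranded DNA oligo substrate, read as fluorescence at 594 nm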
Sequence (P78549 whole entry): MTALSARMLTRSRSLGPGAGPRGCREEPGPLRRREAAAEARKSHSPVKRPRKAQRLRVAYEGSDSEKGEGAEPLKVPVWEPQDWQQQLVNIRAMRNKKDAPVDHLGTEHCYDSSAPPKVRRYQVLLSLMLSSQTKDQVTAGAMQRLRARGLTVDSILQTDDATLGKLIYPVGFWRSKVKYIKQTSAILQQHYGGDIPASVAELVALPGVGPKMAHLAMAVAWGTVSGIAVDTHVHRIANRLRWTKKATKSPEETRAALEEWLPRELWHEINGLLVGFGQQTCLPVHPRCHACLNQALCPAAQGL
Details: Compound Concentration 10.0 uM, Hit No
Description: Inhibition of NTHL1 by quantifying inhibition of NTHL1-mediated cleavage and dissociation of quenched duplex DNA oligonucleotides, measured as fluorescence at 594 nm.
Exercise: for every item that follows, state its recorded inhibition.
Give bare numbers, in %.

Provide the reported inhibition of each entry below, same order.
1. C[C@H](c1ccc(F)cc1)N(Cc1cccc(C(=O)O)c1)C(=O)c1cnc2ccccc2c1
2. CC(=O)Nc1c(C(C)=O)c(=O)n(C)c2nc(-c3ccc(Cl)cc3Cl)c(-c3ccc(Cl)cc3)cc12
3. CC(C)(O)c1ccc2c(c1)ncn2-c1cccc(-c2ccccc2C#N)c1
4. CCCc1c(OCCCOc2ccc(OCC(=O)O)cc2)ccc(C(C)=O)c1O

5.94
-6.55
12.1
3.31

State the recorded inhibition for every item in the following list.
1. O=C(O)CCC/C=C\CC1C(O)CC(O)C1/C=C/C(O)COc1cccc(Cl)c1 (stereo not given)
2. CNC(=O)c1cc(C(=O)N[C@H]2[C@@H]3COC[C@@H]32)cc2c1O[C@@H](CF)[C@@H]2c1ccccc1
3. O=C(NCCCN1CCOC1=O)c1cnc(NCc2cc(Br)ccc2Br)nc1NC1CCCC1
4. Nc1nc(CC(=O)Nc2ccc(CCNC[C@H](O)c3ccccc3)cc2)cs1
5. CSc1cc2c(cc1C(F)(F)F)N(C(=O)Nc1cccnc1)CC2
6. CCOc1cc(N2CCC(O)CC2)ccc1Nc1ncc2c(n1)N(C1CCCC1)CCC(=O)N2C

1: 21; 2: -3.92; 3: -4.1; 4: 22; 5: 5.59; 6: -6.19
